In this section, each of the compounds is paired with its reported Population Pyknosed Nuclei (%).
# System: U2OS
# assay-name: Multiplex assay against U2OS
# Type: toxicity, cell-based
# measurement-setup: human, 48 h, 10 µM, compound concentration 10 uM, replicate 1
Supply the numeric figure in %, leaving out any unit text.

The examples below pair each entry with its known result.
[
  {
    "compound": "COc1ccc2c(c1)C(C(=O)N(Cc1ccc(N(C)C)cc1)c1ccc(C(C)C)cc1)CCC2.Cl (stereo not drawn)",
    "experimental-target": "U2OS",
    "reading": 30
  },
  {
    "compound": "Cc1ccc(C(C)(O)c2nc3ccccc3s2)c(C)c1 (stereo not drawn)",
    "experimental-target": "U2OS",
    "reading": 7
  },
  {
    "compound": "N#Cc1c(N)nc(SCc2csc(-c3ccc(Cl)cc3)n2)c(C#N)c1-c1ccc(OCCO)cc1",
    "experimental-target": "U2OS",
    "reading": 25
  },
  {
    "compound": "CCOc1c2c(c(OCC)c3ncccc13)CN(c1ccc(CS(=O)(=O)NC(=O)Cc3ccccc3OC)cc1C)C2=O",
    "experimental-target": "U2OS",
    "reading": 9
  },
  {
    "compound": "CN(C)CCCc1cc(C(=O)Nc2ccc(-c3ccncc3)cc2)ccc1O.Cl.Cl",
    "experimental-target": "U2OS",
    "reading": 12
  },
  {
    "compound": "c1cc(OCCCN2CCCCC2)ccc1CN1CCCCC1",
    "experimental-target": "U2OS",
    "reading": 6
  }
]

Which Population Pyknosed Nuclei (%) value is on record for `CN1CCN(c2nc3cc(C(F)(F)F)ccc3n3cccc23)CC1.O=C(O)/C=C\C(=O)O.O=C(O)/C=C\C(=O)O` ?
16

// returns reported Population Pyknosed Nuclei (%) for input Cc1ccccc1C(=O)Nc1ccc(C(=O)N2CCCC(N(C)C)c3ccccc32)cc1.Cl (stereo not drawn)
28

Would you kindly share the measured Population Pyknosed Nuclei (%) for `C[C@H](NC(=O)c1c(C(F)F)nn(C)c1Oc1cccc(C(F)(F)F)c1)c1ccc(C(=O)O)cc1` ?
7

====

# Tested on: HEK-293T
# assay-name: Multiplex assay against HEK293T
# Format: toxicity, cell-based
# measurement-setup: human, 12 h, 10 µM, compound concentration 10 uM, replicate 2
Quick list: Population Hoechst High Intensity Objects (%) per entry.
Report as a plain number; the unit % is understood.

Example entries and their recorded answers appear below.
[
  {
    "molecule": "C[C@H](NC(=O)c1c(C(F)F)nn(C)c1Oc1cccc(C(F)(F)F)c1)c1ccc(C(=O)O)cc1 [PALUPIPRANT]",
    "reading": 10
  },
  {
    "molecule": "Cc1ccc(C(C)(O)c2nc3ccccc3s2)c(C)c1 (stereo not drawn)",
    "reading": 7
  },
  {
    "molecule": "O=C1COc2nccc(-c3ccccc3F)c2CN1Cc1cc(C(F)(F)F)cc(C(F)(F)F)c1",
    "reading": 5
  },
  {
    "molecule": "O=C(NCC(=O)N1CC[C@H](N[C@H]2CC[C@@](O)(c3ccc(-c4ncccn4)cn3)CC2)C1)c1cccc(C(F)(F)F)c1 [PF-4136309]",
    "reading": 6
  }
]

Reported Population Hoechst High Intensity Objects (%) for HEK-293T, given `O=C(NCCO)c1cccc(-c2cc(Nc3ccc(OC(F)(F)F)cc3)ncn2)c1` ?
12

Could you share what Population Hoechst High Intensity Objects (%) was measured for `CN1CCN(c2nc3cc(C(F)(F)F)ccc3n3cccc23)CC1.O=C(O)/C=C\C(=O)O.O=C(O)/C=C\C(=O)O` , tested on HEK-293T?
9

Lab note: need Population Hoechst High Intensity Objects (%) with HEK-293T for entry `Cc1ccc(-c2ccc(F)cc2COc2ccc(CCC(=O)O)cc2)cc1` , please look it up.
6

Request: Population Hoechst High Intensity Objects (%), test system HEK-293T, entry COc1ccc2c(c1)C(C(=O)N(Cc1ccc(N(C)C)cc1)c1ccc(C(C)C)cc1)CCC2.Cl (stereo not drawn)
6

Where do these numbers come from? They come from ChEMBL document CHEMBL5058577.
